B1: library; numbered along this chain (parent)
chain: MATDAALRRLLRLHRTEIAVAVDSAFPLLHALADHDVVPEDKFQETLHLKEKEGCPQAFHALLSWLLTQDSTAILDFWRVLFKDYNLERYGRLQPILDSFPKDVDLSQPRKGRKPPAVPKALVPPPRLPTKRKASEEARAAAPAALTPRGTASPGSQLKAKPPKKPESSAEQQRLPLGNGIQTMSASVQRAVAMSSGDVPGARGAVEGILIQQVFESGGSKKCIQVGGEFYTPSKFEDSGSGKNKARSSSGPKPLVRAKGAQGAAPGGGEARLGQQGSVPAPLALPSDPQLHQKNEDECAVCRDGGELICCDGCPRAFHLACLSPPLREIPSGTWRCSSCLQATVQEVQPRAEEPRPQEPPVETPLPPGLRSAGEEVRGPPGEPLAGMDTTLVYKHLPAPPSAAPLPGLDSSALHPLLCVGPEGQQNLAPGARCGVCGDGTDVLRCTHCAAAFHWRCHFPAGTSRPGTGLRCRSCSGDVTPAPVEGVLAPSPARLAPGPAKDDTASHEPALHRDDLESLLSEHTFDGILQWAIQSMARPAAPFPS

Variants of: B1
protocol text: AIRE transcriptional activation functional score (insulin promoter-GFP; nonsense median 0, synonymous median 1) (normalised score); higher = higher AIRE activity (more reporter activation)
measurement context: with insulin promoter-GFP reporter in HEK293
Reported AIRE transcriptional activation functional score values follow for various variants
Format: numeric value only, no unit, no commentary.

Check out these entries, answers already filled in.
{"mutation name": "Q349F", "result": 0.896}
{"mutation name": "V362C", "result": 0.914}
{"mutation name": "P266G", "result": 0.877}
{"mutation name": "V22L", "result": 0.487}
{"mutation name": "D304R", "result": 0.879}
{"mutation name": "L146E", "result": 0.882}

We now examine a further variant.
Would you kindly share the measured AIRE transcriptional activation functional score for G408R ?
0.906

The measurements presented in this section are drawn from the supplement of paper PMC12667976.
